Target: EntE (Escherichia coli, UniProt P10378)
Sequence (P10378 whole entry): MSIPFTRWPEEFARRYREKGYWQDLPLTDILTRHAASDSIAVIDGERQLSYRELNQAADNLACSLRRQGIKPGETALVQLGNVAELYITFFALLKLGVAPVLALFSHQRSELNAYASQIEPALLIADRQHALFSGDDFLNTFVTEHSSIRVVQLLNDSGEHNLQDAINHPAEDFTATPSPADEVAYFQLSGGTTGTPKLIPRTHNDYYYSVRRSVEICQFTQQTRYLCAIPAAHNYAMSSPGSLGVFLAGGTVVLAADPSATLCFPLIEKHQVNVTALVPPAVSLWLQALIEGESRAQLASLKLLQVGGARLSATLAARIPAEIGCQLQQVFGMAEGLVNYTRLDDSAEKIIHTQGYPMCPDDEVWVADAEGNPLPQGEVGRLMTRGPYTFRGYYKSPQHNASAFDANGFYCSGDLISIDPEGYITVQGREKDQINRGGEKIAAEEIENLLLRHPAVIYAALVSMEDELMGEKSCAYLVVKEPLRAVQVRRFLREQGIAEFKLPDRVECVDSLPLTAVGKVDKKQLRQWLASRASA
quantity_measured: Ki

| structure_notation | meas_value |
| --- | --- |
| Nc1ncnc2c1ncn2[C@@H]1O[C@H](COS(=O)(=O)NC(=O)c2cccc(O)c2O)[C@@H](O)[C@H]1O | 3.8 nM |
